organism: Rattus norvegicus; assay: Open TG-GATES - Regimen: Daily Repeat; format: toxicity, organism-based, Sprague-Dawley; design: regimen Daily Repeat, gender Male, age 6 weeks; conditions: in vivo, po, 300 mg/kg, […], tissue Blood, route gavage, dose level Middle, time 14 day
Outcome measure: RBC
# output: number + unit

INSERT INTO assay_data (compound, outcome_measure, value_measured) VALUES
  ('O=C(O)c1ccccc1Nc1ccccc1', 'RBC', '719.6 x10_4/ul'),
  ('CC(S)C(=O)NCC(=O)O (centres undefined)', 'RBC', '689.8 x10_4/ul'),
  ('CCCCNC(=O)NS(=O)(=O)c1ccc(C)cc1 [TOLBUTAMIDE]', 'RBC', '743.4 x10_4/ul');

# query: RBC of entry "CC(=O)[C@@]1(O)CC[C@H]2[C@@H]3C=C(Cl)C4=CC(=O)CC[C@]4(C)[C@H]3CC[C@@]21C" 787.4 x10_4/ul

###

# reported CRE; entries follow
species on record: Rattus norvegicus; assay: Open TG-GATES - Regimen: Single; format: toxicity, organism-based, Sprague-Dawley; design: regimen Single, gender Male, age 6 weeks; settings: in vivo, po, 0 mg/kg, 24 h, tissue Plasma, route gavage, dose level Control
Return type: number; implicit unit mg/dL.

Field: example entries. Status: answers known.
INSERT INTO results (compound, readout_units, value_measured) VALUES
  ('CC(=O)[C@@]1(O)CC[C@H]2[C@@H]3C=C(Cl)C4=CC(=O)CC[C@]4(C)[C@H]3CC[C@@]21C', 'mg/dL', 0.2),
  ('CN(C)CCCN1c2ccccc2Sc2ccc(Cl)cc21', 'mg/dL', 0.5);

// returns reported CRE for input "COc1ccc([C@@H]2Sc3ccccc3N(CCN(C)C)C(=O)[C@@H]2OC(C)=O)cc1" 0.2

Now consider "CCN(CC)C(=S)SSC(=S)N(CC)CC" and answer again. 0.1

###

species: Rattus norvegicus; assay: Open TG-GATES - Regimen: Single; assay type: toxicity, organism-based, Sprague-Dawley; parameters: regimen Single, gender Male, age 6 weeks; settings: in vivo, po, 0 mg/kg, 9 h, tissue Plasma, route gavage, dose level Control
Outcome measure: TBIL (mg/dL)
Reply numerically in mg/dL, unit not repeated.

Which TBIL is reported for this compound? "O=c1ccc2ccccc2o1" 0.3

Consider next the compound CCCCNC(=O)NS(=O)(=O)c1ccc(C)cc1 [TOLBUTAMIDE] in the same way. 0.078

What about this compound? "CN(C)CCCN1c2ccccc2Sc2ccc(Cl)cc21" 0.1

Same lookup for NS(=O)(=O)c1cc(C(=O)O)c(NCc2ccco2)cc1Cl [FUROSEMIDE] , please. 0.066

Can you handle CC(S)C(=O)NCC(=O)O (stereo not given) next? 0.012

Same thing, different compound: "C=C[C@H]1C[N@@]2CC[C@H]1C[C@@H]2[C@@H](O)c1ccnc2ccc(OC)cc12" 0.022

Request: "Nc1ccc(Cc2ccc(N)cc2)cc1" 0.064

Can you check "O=C(O)c1ccccc1Nc1ccccc1" next? 0.05

###

species: Rattus norvegicus; test: Open TG-GATES - Regimen: Daily Repeat; format: toxicity, organism-based, Sprague-Dawley; set-up: regimen Daily Repeat, gender Male, age 6 weeks; conditions: in vivo, po, 100 mg/kg, […], tissue Plasma, route gavage, dose level Low, time 14 day
Outcome measure: Na

INSERT INTO measurements (molecule, value_measured) VALUES
  ('CCCCNC(=O)NS(=O)(=O)c1ccc(C)cc1 [TOLBUTAMIDE]', '143.2 meq/L'),
  ('O=C(O)c1ccccc1Nc1ccccc1', '143.4 meq/L'),
  ('CC(=O)[C@@]1(O)CC[C@H]2[C@@H]3C=C(Cl)C4=CC(=O)CC[C@]4(C)[C@H]3CC[C@@]21C', '142.2 meq/L');

Here is the next item to consider.
Consider the molecule shown here: CC(S)C(=O)NCC(=O)O (centres undefined) What is its recorded Na? 141.6 meq/L

Reference for the values: ChEMBL document CHEMBL3885861
